// data source = ChEMBL document CHEMBL4052805

Would you kindly list pIC50 for each of these compounds?
- Test system: HCT-8
- test-method-notes: Cytotoxicity against human HCT8 cells assessed as reduction in cell viability after 24 hrs by MTT assay
- conditions-used: HCT-8, 24 h
Numbers only, as −log10 of the molar value.

Worked set:
smiles-text	pIC50
NCCCNC(=O)c1cn(Cc2ccccc2)c2cc(Cl)ccc2c1=O	4.84
Cl.NCCCNC(=O)c1cn(CCCc2ccccc2)c2cc(Cl)ccc2c1=O	5.22
CCCCn1cc(C(=O)NCCCN)c(=O)c2ccc(Cl)cc21	4.65
C=CCn1cc(C(=O)NCCCN)c(=O)c2ccc(Cl)cc21	4.46

For the next question, use this compound.
Task item: State its pIC50 for this compound: CCn1cc(C(=O)NCCCN)c(=O)c2ccc(Cl)cc21
Reply: 4.50
